// data source = PubChem BioAssay

- test: TLR3 IRF3 reporter activation blockers – cell-based, poly I:C stimulus, luciferase, 10K MLSCN set, primary screen (AID 602277)
- experimental-setup: HEK293-TLR3 RL24 IRF3 luciferase reporter, at 10 µM, stronger effect = higher value
quantity-kind: inhibition (%)
Numbers only, in %.

Solved entries:
Return inhibition (reported value) for this compound: Cc1ccc2c(c1)NC(=O)C(CC(=O)NCCN(CC(C)C)CC(C)C)O2 (configuration not stated)
-6.31

Indicate the recorded inhibition value for this compound: Cc1ccc2c(Cl)cc(Cl)c(OCc3c(C)noc3C)c2n1
-0.677

Fill in reported inhibition for this entry: CCn1cc(C2Nc3ccccc3C(=O)N2O)c(C)n1 (configuration not stated)
-70.4

Supply inhibition value. Item: CCCCNC(=O)Cn1c(=O)n(C)c2ccccc21
30

Output measured inhibition for this item: O=C(CSc1nnnn1C1CCCCC1)N1CCc2ccccc21
-10

Parameter requested: inhibition. Apply to each item below.
1. COc1ccc(-n2ncc3c(N4CCC(C)CC4)ncnc32)cc1
2. O=C(OCn1nnc2ccccc2c1=O)c1cc2ccccc2o1
3. CCCCC(=O)Nc1ccc(NC(=O)C2CC2)nc1

-67.2
27.7
-2.76

====

- test: blockers of RIG-like receptor reporter activation – cell-based, Sendai virus stimulus, luciferase, 10K MLSCN set, TLR/RLR signaling modifier project, primary screen (AID 602276);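 also: firefly luciferase from ISG56 promoter only with Renilla not read in this screen; 0% = Sendai virus plus DMSO and 100% = medium plus DMSO without virus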
- experimental-setup: HEK293 RL24 IRF3 luciferase reporter, at 10 µM, stronger effect = higher value
quantity-kind: inhibition (%)
One number for each entry, in %.

Read off the recorded inhibition for CC1CCCCN1C(=O)Cn1nnc(-c2cccnc2)n1 (stereo unspecified)
9.95

Determine from records and report inhibition for COc1ccc(C2CC(c3ccco3)n3ncnc3N2)cc1 (stereo unspecified)
9.66

State its inhibition for this compound: COC(=O)c1cc2oc(C)cc2n1CC(=O)Nc1ccc(C)c(C)c1
-0.339

Indicate the recorded inhibition value for this compound: COCCCNC(=O)C1CCN(C(=O)Nc2ccc(Cl)cc2)CC1
11.2

Read the entry O=C(Nc1ccccc1N1CCCCC1)c1ncoc1-c1ccc(F)cc1 and write its reported inhibition.
-3.24

Specify inhibition for CCN1C(=O)C(C(=O)Nc2ccc(OC)cc2)C2CC1(C)Oc1ccccc12 (stereo unspecified) and stop.
-34.3

Hello, please tell me recorded inhibition for this one: CC(=O)C(Sc1ncnc2c1nnn2-c1ccc(F)cc1)C(=O)N(C)C (stereo unspecified)
-3.3

Provide only the value of recorded inhibition for Cc1cc(=O)n2nc(N3CCC(C(=O)N4CCN(Cc5ccccc5)CC4)CC3)sc2n1
7.85

// Input: CC1=C(C(=O)OC2CCCCC2)C(c2ccc(C)o2)C2=C(CC(C)(C)CC2=O)N1 (stereo unspecified) . Output its inhibition only.
7.33

Output inhibition of CCn1c(Cc2ccccc2)nnc1SCC(=O)Nc1cc(C)on1
-8.42

# context switch: different compound, same inhibition
Give the measured inhibition for CN(C1CCS(=O)(=O)C1)S(=O)C12CC3CC(CC(C3)C1)C2 (stereo unspecified)
-4.43

====

- test: inhibitors of TNFa-induced NFkB p65 translocation, primary screen, imaging, HUVEC, MLSMR starter and 10KST1 sets (AID 438);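 also: compound added about 3h40 before a 20 min TNFalpha stimulation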
- experimental-setup: HUVEC TNFa-induced p65 nuclear translocation; measured here: nuclei count (cytotoxicity indicator), at 2.08 µM
quantity-kind: cell count
Numbers only.

For each of the compounds below, state cell count.
1. O=C(O)Cn1nc2ccccc2n1
2. CN(CC(=O)N1CCCc2c1c(=O)oc1ccc(O)cc21)Cc1ccccc1

1. 396
2. 418
